# System: NCI-H1581;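 further: cell growth inhibition read out by a viability assay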
# ASSAY COMMENT: cells
# Assay type: functional, cell-based
# SETUP CONDITIONS: Homo sapiens
# Description: SANGER: Inhibition of human NCI-H1581 cell growth in a cell viability assay.
For each record, write down the corresponding IC50.

Task: So what IC50 did N#C/C(=C1/Nc2ccccc2S1)c1ccnc(NCCc2cccnc2)n1 get with NCI-H1581?
Result: > 8 µM

Task: So what IC50 did CC[C@@]1(O)C(=O)OCc2c1cc1n(c2=O)Cc2cc3ccccc3nc2-1 get with NCI-H1581?
Result: 0.0335 µM

Task: So what IC50 did CCNc1cc(N[C@H]2CC[C@@H](O)CC2)nc(Nc2ccc3c(ccn3Cc3ccccc3)c2)n1 get with NCI-H1581?
Result: > 5.12 µM

Task: So what IC50 did CCNC(=O)c1noc(-c2cc(C(C)C)c(O)cc2O)c1-c1ccc(CN2CCOCC2)cc1 get with NCI-H1581?
Result: > 0.256 µM

Task: So what IC50 did NC(=O)c1ncn([C@@H]2O[C@H](COP(=O)(O)O)[C@@H](O)[C@H]2O)c1N get with NCI-H1581?
Result: > 2000 µM

Task: So what IC50 did COc1cc(C)c(Sc2cnc(NC(=O)c3ccc(CNC(C)C(C)(C)C)cc3)s2)cc1C(=O)N1CCN(C(C)=O)CC1 (stereo not drawn) get with NCI-H1581?
Result: > 10.2 µM

Task: So what IC50 did Cc1nc(Nc2ncc(C(=O)Nc3c(C)cccc3Cl)s2)cc(N2CCN(CCO)CC2)n1 get with NCI-H1581?
Result: > 1.28 µM

Task: So what IC50 did Cc1n[nH]c2ccc(-c3cncc(OC[C@@H](N)Cc4c[nH]c5ccccc45)c3)cc12 get with NCI-H1581?
Result: 0.606 µM

Values were extracted from ChEMBL document CHEMBL1201861.
